# System: Zea mays (ZEAMX)
# Assay type: in vivo
# cond: pre-emergence, 80 g/ha, crop plant compatibility, in comparison to untreated controls
outcome measure: Pre-emergence action against ZEAMX in % (%)

A = CCOC(=O)COc1nn(-c2ncccc2C(F)(F)F)c(-c2ccc(F)nc2)c1Cl
B = C[C@@H](Oc1nn(-c2ncccc2F)c(-c2ccc(F)nc2)c1Br)C(=O)O [Example I-10]
C = N#CCOC(=O)COc1nn(-c2ncccc2F)c(-c2ccc(F)nc2)c1Br
Request: Rank the compounds listed above in increasing order of Pre-emergence action against ZEAMX in %. Answer by listing the labels in the requested order.
Result: A, C, B

1 = COCCOC(=O)COc1nn(-c2ncccc2C(F)(F)F)c(-c2ccc(F)nc2)c1Br
2 = COC(=O)COc1nn(-c2ncccc2C(F)(F)F)c(-c2cncc(F)c2)c1I
3 = O=C(O)COc1nn(-c2nc(F)ccc2F)c(-c2ccc(F)nc2)c1C1CC1
Request: Sequence the entries by Pre-emergence action against ZEAMX in %, beginning with the highest number. Answer by listing the labels in the requested order.
Result: 2, 3, 1
(2: 20%, 3: 10%, 1: 0%)

a = O=C(O)C1CCCN1C(=O)COc1nn(-c2ccccn2)c(-c2ccc(F)nc2)c1Br (centres unmarked)
b = COC(=O)C=CC(C)NC(=O)COc1nn(-c2ccccn2)c(-c2ccc(F)nc2)c1Br (centres unmarked) [Example I-297]
Request: Decide: a or b , by lowest recorded Pre-emergence action against ZEAMX in %. Please indicate the selected item by its label.
Result: a

P = O=C(O)COc1nn(-c2ncccc2C(F)(F)F)c(-c2ccc(F)nc2)c1Br
Q = CCOC(=O)COc1nn(-c2ncccc2C(F)(F)F)c(-c2ccc(F)nc2)c1Br
R = CCOC(=O)C(Oc1nn(-c2ccccn2)c(-c2ccc(F)nc2)c1Br)C(C)C (centres unmarked)
Request: Put the items in order so that reported Pre-emergence action against ZEAMX in % rises from first to last. Answer by listing the labels in the requested order.
Result: P, R, Q
